// provenance: ChEMBL document CHEMBL1201862

# Test system: SK-MEL-28
# methodDescription: NCI tumour cell line growth inhibition, 48 h
Calls of active or inactive are those of the source. Rule as the data show it: active = GI50 up to about 1.1 µM and inactive = higher.
readoutKind: GI50

COC(CC1(OC)OC(=O)C=C1N)OC (centres undefined): > 100 µM (inactive)
C[N+](C)([O-])CCCNc1c2ccccc2nc2cccc([N+](=O)[O-])c12: 0.684 µM (active)
Clc1ccc(Cl)c(/N=N/c2cc3c4c(c2)CCCN4CCC3)c1: > 10 µM (inactive)
CC(=O)Nc1ccccc1Sc1ccccc1: > 100 µM (inactive)
COc1ccc(C2C3=C(COC3=O)OC(C)(C)Oc3cc4c(cc32)OCO4)cc1OC (centres undefined): 53.2 µM (inactive)

Prompt line: Report the value of GI50 obtained on SK-MEL-28 for ClCCN1CCOC1=C1C=CC=C1 .
Response line: > 100 µM (inactive)

Prompt line: Report the value of GI50 obtained on SK-MEL-28 for CCOc1cc(C2CC(c3ccc(NS(=O)(=O)c4cc([N+](=O)[O-])ccc4C)cc3)=NN2C(=O)c2ccccc2)ccc1O (centres undefined) .
Response line: 36.5 µM (inactive)

Prompt line: Report the value of GI50 obtained on SK-MEL-28 for COc1cc(C=O)c(-c2cc3c(cc2C2(C)OCCS2)OCO3)c(OC)c1OC (centres undefined) .
Response line: 4.4 µM (inactive)

Prompt line: Report the value of GI50 obtained on SK-MEL-28 for CCC1c2[nH]c3ccccc3c2C[C@H]2C(=O)NC(COC(C)(C)C)C(=O)N12 (some centres undefined) .
Response line: 86.3 µM (inactive)

Prompt line: Report the value of GI50 obtained on SK-MEL-28 for Cc1ccc2nc(-n3c(/C=C/c4ccccc4O)nc4ccccc4c3=O)sc2c1 .
Response line: > 100 µM (inactive)

Prompt line: Report the value of GI50 obtained on SK-MEL-28 for Clc1ccc(/C=N/c2ccc(Oc3ccc(Cl)cc3)c(Cl)c2)cc1 .
Response line: 23.6 µM (inactive)

Prompt line: Report the value of GI50 obtained on SK-MEL-28 for O=C(NCCC1CN(C(=O)OCc2ccccc2)c2ccccc21)OCc1ccccc1 (centres undefined) .
Response line: > 100 µM (inactive)

Prompt line: Report the value of GI50 obtained on SK-MEL-28 for CC(C)(C)OC(=O)N(CCCCNC(=O)c1ccccc1)CCCNC(=O)c1ccccc1 .
Response line: > 100 µM (inactive)

Prompt line: Report the value of GI50 obtained on SK-MEL-28 for N#C/C(=C/c1cccc2ccccc12)C(=O)c1ccccc1 .
Response line: 13.9 µM (inactive)

Prompt line: Report the value of GI50 obtained on SK-MEL-28 for COC(=O)c1nc(Cl)nc(Cl)c1Cl .
Response line: 21.1 µM (inactive)

Prompt line: Report the value of GI50 obtained on SK-MEL-28 for CN(CCNC(=O)c1nn(-c2ccccc2)c2c1ccc1ccccc12)CCNC(=O)c1nn(-c2ccccc2)c2c1ccc1ccccc12 .
Response line: 1.7 µM (inactive)

Prompt line: Report the value of GI50 obtained on SK-MEL-28 for NC(=O)N1N=C2c3ccccc3OC[C@H]2[C@@H]1c1ccccc1 .
Response line: 25.5 µM (inactive)

Prompt line: Report the value of GI50 obtained on SK-MEL-28 for CCOC(=O)/C=C1\C[C@H](NC(=O)OCc2ccccc2)C(=O)N1CC(=O)OCC .
Response line: > 100 µM (inactive)

Prompt line: Report the value of GI50 obtained on SK-MEL-28 for COC1(OC)C(/C(N)=C\O)=NC(C)(C)N1O .
Response line: > 100 µM (inactive)

Prompt line: Report the value of GI50 obtained on SK-MEL-28 for O=C1N=C(SC2OC(CO)C(O)C(O)C2O)S/C1=C\c1ccccc1 (centres undefined) .
Response line: > 100 µM (inactive)
